Values from patent US6458978B1

test: Determination of partition coefficients of phosphines in fluorous biphasic systems (ICP-AAS on phosphorus); type: physicochemical; conditions: 0° C., 1:1 mixture (v/v)
Assignment: determine reported Fluorous partition coefficient P = cfluorous phase/corganic phase, toluene/c-C6F11CF3 for the given compounds.
Output: the number by itself.

input: Which Fluorous partition coefficient P = cfluorous phase/corganic phase, toluene/c-C6F11CF3 is reported for this compound? C[Si](CCC(F)(F)C(F)(F)C(F)(F)C(F)(F)C(F)(F)C(F)(F)F)(CCC(F)(F)C(F)(F)C(F)(F)C(F)(F)C(F)(F)C(F)(F)F)c1ccc(P(c2ccc([Si](C)(CCC(F)(F)C(F)(F)C(F)(F)C(F)(F)C(F)(F)C(F)(F)F)CCC(F)(F)C(F)(F)C(F)(F)C(F)(F)C(F)(F)C(F)(F)F)cc2)c2ccc([Si](C)(CCC(F)(F)C(F)(F)C(F)(F)C(F)(F)C(F)(F)C(F)(F)F)CCC(F)(F)C(F)(F)C(F)(F)C(F)(F)C(F)(F)C(F)(F)F)cc2)cc1 [D{2,6}, P[C6H4Si(CH2CH2C6F13)2Me-4]3]
output: 3.8

input: Which Fluorous partition coefficient P = cfluorous phase/corganic phase, toluene/c-C6F11CF3 is reported for this compound? C[Si](C)(CCC(F)(F)C(F)(F)C(F)(F)C(F)(F)C(F)(F)C(F)(F)F)c1ccc(P(c2ccc([Si](C)(C)CCC(F)(F)C(F)(F)C(F)(F)C(F)(F)C(F)(F)C(F)(F)F)cc2)c2ccc([Si](C)(C)CCC(F)(F)C(F)(F)C(F)(F)C(F)(F)C(F)(F)C(F)(F)F)cc2)cc1
output: 0.13

input: Which value of Fluorous partition coefficient P = cfluorous phase/corganic phase, toluene/c-C6F11CF3 has been reported for C[Si](C)(CCC(F)(F)C(F)(F)C(F)(F)C(F)(F)C(F)(F)C(F)(F)C(F)(F)C(F)(F)F)c1ccc(P(c2ccc([Si](C)(C)CCC(F)(F)C(F)(F)C(F)(F)C(F)(F)C(F)(F)C(F)(F)C(F)(F)C(F)(F)F)cc2)c2ccc([Si](C)(C)CCC(F)(F)C(F)(F)C(F)(F)C(F)(F)C(F)(F)C(F)(F)C(F)(F)C(F)(F)F)cc2)cc1 in the records?
output: 1.06

input: Fill blank: measured Fluorous partition coefficient P = cfluorous phase/corganic phase, toluene/c-C6F11CF3 of the compound C[Si](C)(C)c1ccc(P(c2ccc([Si](C)(C)C)cc2)c2ccc([Si](C)(C)C)cc2)cc1 [D{0}, P(C6H4SiMe3-4)3, reference compound] is ____.
output: 0.007
